biological target: ER in MCF-7 cells (Homo sapiens (Human), UniProt P03372); experiment: In-cell Western (ICW) ER degradation assay in MCF-7 cells; format: cell-based; settings: MCF7, MCF-7, maximal ER degradation, 16 hrs treatment; read-out: MCF7 Dmax
Sequence (P03372 whole entry): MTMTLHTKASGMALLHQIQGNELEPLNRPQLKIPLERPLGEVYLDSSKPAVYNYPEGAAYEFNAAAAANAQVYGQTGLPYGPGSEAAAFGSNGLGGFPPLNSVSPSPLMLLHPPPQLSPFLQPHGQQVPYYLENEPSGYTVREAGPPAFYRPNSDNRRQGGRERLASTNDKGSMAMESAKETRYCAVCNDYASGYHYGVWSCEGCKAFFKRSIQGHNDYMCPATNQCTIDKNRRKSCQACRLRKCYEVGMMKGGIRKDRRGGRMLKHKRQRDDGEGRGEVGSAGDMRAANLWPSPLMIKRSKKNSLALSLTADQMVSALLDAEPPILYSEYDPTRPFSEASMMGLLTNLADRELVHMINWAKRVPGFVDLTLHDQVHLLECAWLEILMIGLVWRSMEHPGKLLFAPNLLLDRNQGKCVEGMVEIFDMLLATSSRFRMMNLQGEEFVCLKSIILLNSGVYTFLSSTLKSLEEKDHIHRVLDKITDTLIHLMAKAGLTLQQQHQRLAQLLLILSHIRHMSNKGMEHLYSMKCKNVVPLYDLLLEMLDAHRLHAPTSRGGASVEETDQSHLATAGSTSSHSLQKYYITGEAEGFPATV
What Dmax was measured for each of the following?

Some molecules with recorded Dmax:
• COc1cc(N2CCC3(CC2)CC(CN2CCC(c4ccc(N[C@H]5CCC(=O)NC5=O)cc4)CC2)C3)ccc1[C@@H]1c2ccc(O)cc2CC[C@@H]1c1ccccc1 (single isomer, unassigned) = 50 to 75%
• COc1cc(N2CCC3(CC2)CC(CN2CCN4c5cc6c(cc5OC[C@@H]4C2)C(=O)N([C@H]2CCC(=O)NC2=O)C6)C3)ccc1[C@H]1c2ccc(O)cc2CC[C@H]1c1ccccc1 (single isomer, unassigned) = 50 to 75%
• COc1cc(N2CCC3(CC2)C[C@@H](CN2CCN4c5ccc6c(c5OC[C@H]4C2)CN([C@H]2CCC(=O)NC2=O)C6=O)CO3)ccc1[C@@H]1c2ccc(O)cc2CC[C@@H]1c1ccccc1 (single isomer, unassigned) = > 75%
• O=C1CC[C@H](N2Cc3c(ccc4c3OC[C@H]3CN(CC5CC6(CCN(c7ncc([C@H]8c9ccc(O)cc9CC[C@H]8c8ccccc8)cn7)CC6)C5)CCN43)C2=O)C(=O)N1 (single isomer, unassigned) = 50 to 75%
• O=C1CC[C@@H](Nc2ccc(C3CCN(CC4CCC5(CC4)CN(c4ccc([C@@H]6c7ccc(O)cc7CC[C@@H]6c6ccccc6)cc4)C5)CC3)cc2)C(=O)N1 (single isomer, unassigned) = 50 to 75%
• O=C1CC[C@@H](Nc2ccc(C3CCN(C[C@@H]4COC5(CCN(c6ccc([C@@H]7c8ccc(O)cc8CC[C@@H]7c7ccccc7)cc6)CC5)C4)CC3)c(F)c2)C(=O)N1 (single isomer, unassigned) = 25 to 50%

Quick batch: Dmax for everything below.
1. COc1cc(N2CCC3(CC2)C[C@H](CN2CCN4c5cc6c(cc5OC[C@@H]4C2)C(=O)N([C@H]2CCC(=O)NC2=O)C6)CO3)ccc1[C@@H]1c2ccc(O)cc2CC[C@@H]1c1ccccc1 (single isomer, unassigned)
2. COc1cc(N2CC3(CC(CN4CCN5c6ccc7c(c6OC[C@H]5C4)CN([C@H]4CCC(=O)NC4=O)C7=O)C3)C2)c(F)cc1[C@@H]1c2ccc(O)cc2CC[C@@H]1c1ccccc1

[reply]
> 75%
> 75%

Quick batch: Dmax for everything below.
1. O=C1CC[C@H](N2Cc3c(ccc4c3OC[C@H]3CN(C5CN(CCOc6ccc([C@@H]7c8ccc(O)cc8CC[C@@H]7c7ccccc7)cc6)C5)CCN43)C2=O)C(=O)N1
2. O=C1CC[C@H](N2Cc3c(ccc4c3OC[C@H]3CN(CC5CCC6(CC5)CN(c5ncc([C@@H]7c8ccc(O)cc8CC[C@@H]7c7ccccc7)cn5)C6)CCN43)C2=O)C(=O)N1 (single isomer, unassigned)
3. COc1cc(N2CC3(CC(CN4CCN5c6ccc7c(c6OC[C@H]5C4)CN([C@H]4CCC(=O)NC4=O)C7=O)CO3)C2)ccc1[C@@H]1c2ccc(O)cc2CC[C@@H]1c1ccccc1 (single isomer, unassigned)

[reply]
1: 50 to 75%; 2: > 75%; 3: 50 to 75%

Provenance of the data: patent US20260028354A1
